Source of measurements: the domain aggregation screens of Martell et al. (2025)

assay-info: soluble fraction after stress (log2 fold change); higher = more stays soluble; pooled small domains, quantitative proteomics
measurement-context: stress: 50 degC
List of soluble fraction (log2) values.

{"primary-sequence": "HMAREQISVSQMVRDVRDGQVKNIEVLGQELRLSYADGSQKVTRKEEGQQALEILFASDIDLAALDLEVQ", "soluble fraction (log2)": 0.0848}
{"primary-sequence": "HMLPGLGPIERAQFMLQAIPGISPTRSAALIDKFGSIAGIAQASIKDIQTIEGIGKKTATTLYEVLNAG", "soluble fraction (log2)": -0.341}
{"primary-sequence": "HMPGKVSDAGATAKDNRLFLEAVFWRVRTGSPWRDLPPAFGHWNSQFRRFRRWAKAGVFESLFNA", "soluble fraction (log2)": 0.0893}

Can you look up the measured soluble fraction (log2) of `HMTSEPFYNPRRPQPYWTSETDRHTTYADAVRALAREFSETPEWVESNMGETNDLQEIRRNLSRVKSG` for me?
0.144
